Origin of measurements: the supplement of paper PMC11246515

Each entry below carries its recorded total protein half-life in vivo.
Assay: total protein half-life in vivo (active degradation + dilution); higher = more stable protein
Conditions: E. coli NCM3722 delta-hslV; growth: N-lim chemostat; doubling time 6 h
Express it in h; write the number only.

INSERT INTO results (query_sequence, unit_spec, numeric_readout) VALUES
  ('MAIRLYKLAVALGVFIVSAPAFSHGHHSHGKPLTEVEQKAANGVFDDANVQNRTLSDWDGVWQSVYPLLQSGKLDPVFQKKADADKTKTFAEIKDYYHKGYATDIEMIGIEDGIVEFHRNNETTSCKYDYDGYKILTYKSGKKGVRYLFECKDPESKAPKYIQFSDHIIAPRKSSHFHIFMGNDSQQSLLNEMENWPTYYPYQLSSEEVVEEMMSH', 'h', 7.32),
  ('MKTAYIAKQRQISFVKSHFSRQLEERLGLIEVQAPILSRVGDGTQDNLSGCEKAVQVKVKALPDAQFEVVHSLAKWKRQTLGQHDFSAGEGLYTHMKALRPDEDRLSPLHSVYVDQWDWERVMGDGERQFSTLKSTVEAIWAGIKATEAAVSEEFGLAPFLPDQIHFVHSQELLSRYPDLDAKGRERAIAKDLGAVFLVGIGGKLSDGHRHDVRAPDYDDWSTPSELGHAGLNGDILVWNPVLEDAFELSSMGIRVDADTLKHQLALTGDEDRLELEWHQALLRGEMPQTIGGGIGQSRLTMLLLQLPHIGQVQCGVWPAAVRESVPSLL', 'h', 3.06),
  ('MERVYRTDLKLLRYFLAVAEELHFGRAAARLNMSQPPLSIHIKELENQLGTQLFIRHSRSVVLTHAGKILMEESRRLLVNANNVLARIEQIGRGEAGRIELGVVGTAMWGRMRPVMRRFLRENPNVDVLFREKMPAMQMALLERRELDAGIWRMATEPPTGFTSLRLHESAFLVAMPEEHHLSSFSTVPLEALRDEYFVTMPPVYTDWDFLQRVCQQVGFSPVVIREVNEPQTVLAMVSMGIGITLIADSYAQMNWPGVIFRPLKQRIPADLYIVYETQQVTPAMVKLLAALTQ', 'h', 3.03);

Here is another sequence to look at.
# input Look up total protein half-life in vivo for this sequence: MHPMLNIAVRAARKAGNLIAKNYETPDAVEASQKGSNDFVTNVDKAAEAVIIDTIRKSYPQHTIITEESGELEGTDQDVQWVIDPLDGTTNFIKRLPHFAVSIAVRIKGRTEVAVVYDPMRNELFTATRGQGAQLNGYRLRGSTARDLDGTILATGFPFKAKQYATTYINIVGKLFNECADFRRTGSAALDLAYVAAGRVDGFFEIGLRPWDFAAGELLVREAGGIVSDFTGGHNYMLTGNIVAGNPRVVKAMLANMRDELSDALKR [P0ADG4]
# output 5.2
